# targetOfAssay: récepteur de l'angiotensine II (Rattus norvegicus)
# Sequence (P25095 whole entry): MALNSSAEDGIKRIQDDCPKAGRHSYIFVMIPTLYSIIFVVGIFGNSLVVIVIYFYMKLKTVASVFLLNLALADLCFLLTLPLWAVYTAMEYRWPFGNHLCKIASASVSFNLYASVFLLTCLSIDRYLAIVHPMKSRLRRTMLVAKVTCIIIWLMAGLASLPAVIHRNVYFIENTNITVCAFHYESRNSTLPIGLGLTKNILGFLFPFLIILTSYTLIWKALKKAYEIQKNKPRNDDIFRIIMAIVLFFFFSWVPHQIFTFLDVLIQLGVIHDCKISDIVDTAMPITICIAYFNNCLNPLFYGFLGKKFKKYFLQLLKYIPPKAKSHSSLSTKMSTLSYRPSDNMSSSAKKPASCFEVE
measuredAttribute: pIC50
pIC50 (log units): -log10 of the concentration in mol/L.

Tell me reported pIC50 for CCCCc1nc2cccc(C(=O)O)c2n1Cc1ccc(-c2ccccc2C(=O)O)cc1 [Exemple 2] , tested with récepteur de l'angiotensine II (Rattus norvegicus).
7.28
